target: human skin chymase (Homo sapiens, UniProt P23946); construct: using human skin chymase (Cortex Biochem); purchased Cortex Biochem; assay: Enzyme-catalyzed hydrolysis assay (chymase inhibition); type: biochemical; settings: 10 nM enzyme, 0.7 mM Suc-Ala-Ala-Pro-Phe-pNa, pH 8.0, 37° C., 30 minutes
Sequence (P23946 22-247): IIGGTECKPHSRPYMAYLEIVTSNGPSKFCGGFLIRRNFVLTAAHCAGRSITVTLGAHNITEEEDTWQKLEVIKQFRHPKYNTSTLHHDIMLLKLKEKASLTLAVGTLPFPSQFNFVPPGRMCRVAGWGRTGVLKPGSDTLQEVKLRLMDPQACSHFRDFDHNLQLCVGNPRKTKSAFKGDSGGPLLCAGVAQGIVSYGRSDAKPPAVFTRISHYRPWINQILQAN
Binary label based on IC50 with cut-off 3 µM: below gives 1 (yes), not below gives 0 (no).

compound="COc1cccc(/C=C/NC(=O)C(c2csc3ccc(Cl)cc23)P(C)(=O)O)c1OC (centres unmarked) [Cpd 165]" class="1 (yes)"
compound="CC(C)OC(=O)c1cc2ccccc2cc1NC(=O)C(c1cccc2ccccc12)P(=O)(O)O (centres unmarked) [Cpd 139]" class="0 (no)"
compound="O=C(Nc1cc(NC(=O)C(c2cccc3ccccc23)P(=O)(O)O)cc2ccccc12)C1CCN(C(=O)c2ccc3ccccc3c2)CC1 (centres unmarked) [Cpd 8]" class="1 (yes)"
compound="CP(=O)(O)C(C(=O)NC=Cc1ccc(C#N)cc1)c1csc2ccc(Cl)cc12 (centres unmarked) [Cpd 157]" class="0 (no)"
compound="NS(=O)(=O)OCC(C(=O)Nc1ccc2ccccc2c1)c1csc2ccc(Cl)cc12 (centres unmarked) [Cpd 120]" class="0 (no)"
compound="O=C(N/C=C/c1ccccc1)C(c1cccc2ccccc12)P(=O)(O)O (centres unmarked) [Cpd 37]" class="1 (yes)"
compound="O=C(Nc1ccc2ccsc2c1)C(c1cccc2ccccc12)P(=O)(O)O (centres unmarked) [Cpd 59]" class="1 (yes)"

* * *

Parameter: Cmax at 2 h. Scope: all listed entries.
Assay: Pharmacokinetic assay for evaluation of oral absorption potential
Type: in vivo
Conditions: rat; male Sprague Dawley rats, oral gavage 15 mg/kg in 20% hydroxy-beta-cyclo dextran, plasma, N = 2
Protocol: Male Sprague Dawley rats, weighing 250-300 g, were fasted overnight then dosed by oral gavage at a level of 15 mg/kg with a compound. Compounds were formulated in 20% hydroxy-beta-cyclo dextran. Blood samples (0.5 mL) were collected into lithium heparinized tubes at 0.5, 1.0 and 2.0 h post dose via orbital sinus puncture. […] Plasma samples were prepared as follows. […] Calibration standards were prepared in the range of 0.1 to 10 μM for quantitation. […]
PROPERTY_MEASURED: Cmax at 2 h (µM)

compound="CC(C)(C)C(=O)OCOP(=O)(O)C(C(=O)N/C=C/c1ccccc1)c1cccc2ccccc12 (centres unmarked) [Cpd 177]" property_measured="Cmax at 2 h" bound_type== meas_value=2
compound="CC(C)(C)C(=O)OCOP(=O)(O)C(C(=O)N/C=C/c1ccc(F)c(F)c1)c1csc2ccc(Cl)cc12 (centres unmarked) [Cpd 187]" property_measured="Cmax at 2 h" bound_type== meas_value=21.4
compound="CP(=O)(OCCN)C(C(=O)NC=Cc1ccc(F)c(F)c1)c1csc2ccc(Cl)cc12 (centres unmarked) [Cpd 184]" property_measured="Cmax at 2 h" bound_type== meas_value=0.1
compound="CC(C)(C)C(=O)OCOP(C)(=O)C(C(=O)N/C=C/c1ccc(F)c(F)c1)c1csc2ccc(Cl)cc12 (centres unmarked) [Cpd 182]" property_measured="Cmax at 2 h" bound_type== meas_value=11.8
compound="O=C(N/C=C/c1ccc(F)c(F)c1)C(c1csc2ccc(Cl)cc12)P1(=O)OCCCO1 (centres unmarked) [Cpd 189]" property_measured="Cmax at 2 h" bound_type== meas_value=21.1
compound="CC(C)(C)C(=O)OCOP(=O)(OCOC(=O)C(C)(C)C)C(C(=O)N/C=C/c1ccc(F)c(F)c1)c1csc2ccc(Cl)cc12 (centres unmarked) [Cpd 186]" property_measured="Cmax at 2 h" bound_type== meas_value=20.1
compound="CCN(CC)C(=O)COP(C)(=O)C(C(=O)NC=Cc1ccc(F)c(F)c1)c1csc2ccc(Cl)cc12 (centres unmarked) [Cpd 185]" property_measured="Cmax at 2 h" bound_type== meas_value=2.1
compound="CCN(CC)C(=O)COP(=O)(OCC(=O)N(CC)CC)C(C(=O)N/C=C/c1ccccc1)c1cccc2ccccc12 (centres unmarked) [Cpd 180]" property_measured="Cmax at 2 h" bound_type=< meas_value=0.1
